biological target: Hepatocyte nuclear factor 3-beta (Homo sapiens); assay: ATG_FoxA2_CIS: Attagene CIS-FACTORIAL HepG2 Assay for human Forkhead box A2 (FOXA2) (AID 2282942); details: HepG2 cis-reporter transcription factor activity, 24 h; actives raise or lower the signal
Activity calls are given as the source filed them. How the source made its calls: active means hit-call score of the fitted dose curve at least 0.9, where 1 is the maximum; inactive means score below 0.9.
Possible outcomes: T = active, F = inactive

{"columns": ["COMPOUND", "LABEL"],
 "data": [
  ["O=C(OC(=O)C(F)(F)C(F)(F)F)C(F)(F)C(F)(F)F", "F"],
  ["CCCCCCc1ccc(N)cc1", "F"],
  ["FCOC(C(F)(F)F)C(F)(F)F", "F"],
  ["O=C(Nc1ccc(Cl)c(Cl)c1)c1cc(Cl)cc(Cl)c1O", "T"],
  ["CCCCCCCCCCCC[N+](C)(C)CCCCCCCCCCCC", "F"],
  ["OCCN1CN(CCO)CN(CCO)C1", "F"],
  ["CCOC(=O)c1nc(C(Cl)(Cl)Cl)n(-c2ccc(Cl)cc2Cl)n1", "F"],
  ["CN(Cc1cnc2nc(N)nc(N)c2n1)c1ccc(C(=O)N[C@@H](CCC(=O)O)C(=O)O)cc1", "F"],
  ["O=S(=O)(O)c1ccccc1", "F"],
  ["C=CC(F)(F)C(F)(F)C(F)(F)C(F)(F)F", "F"],
  ["CCOC=O", "F"],
  ["Cn1sccc1=O", "F"],
  ["O=C(O)CN(CCCN(CC(=O)O)CC(=O)O)CC(=O)O", "F"],
  ["COCC1CCC(CO)CC1 (configuration not stated)", "F"],
  ["O=C(F)C(F)(F)C(F)(F)C(F)(F)C(=O)F", "F"],
  ["CCOCCOCC", "F"],
  ["FC(F)(F)C1(F)C(F)(F)C(F)(F)C(F)(F)C(F)(C(F)(F)F)C1(F)F (configuration not stated)", "F"],
  ["CCCCCCCCCCCC", "F"],
  ["O=P(O)(O)CCC(F)(F)C(F)(F)C(F)(F)C(F)(F)C(F)(F)C(F)(F)C(F)(F)C(F)(F)F", "F"],
  ["Oc1c(Cl)ccc(Cl)c1Cl", "F"],
  ["FC(F)(F)C1(F)C(F)(F)C(F)(F)C(F)(F)C1(F)F", "F"],
  ["N=C(N)c1ccc(OCCCCCOc2ccc(C(=N)N)cc2)cc1", "F"],
  ["CS(=O)(=O)c1ccc([C@@H](CC2CCCC2)C(=O)Nc2cnccn2)cc1Cl", "F"],
  ["C/C=C/C(=O)C1=C(C)CCCC1(C)C", "F"],
  ["c1cc2cccc3c4cccc5cccc(c(c1)c23)c54", "F"],
  ["C=CC(=O)OCCC(F)(F)C(F)(F)C(F)(F)C(F)(F)C(F)(F)C(F)(F)F", "F"],
  ["O=CC(F)(F)C(F)(F)C(F)(F)F", "F"],
  ["CCOC=C(C(=O)OCC)C(=O)OCC", "F"],
  ["O=C(O)C(F)(F)OC(F)(F)C(F)(F)OC(F)(F)C(F)(F)OC(F)(F)C(F)(F)C(F)(F)C(F)(F)F", "F"],
  ["O=C(F)C(F)(F)C(F)(F)C(F)(F)C(F)F", "F"],
  ["COC(=O)CC(C(C)=O)C(=O)OC (configuration not stated)", "F"],
  ["C=CC(=O)OCC(CO)(COCC(COC(=O)C=C)(COC(=O)C=C)COC(=O)C=C)COC(=O)C=C", "F"]
]}

----------
assay: BSK_3C_uPAR: BioMAP Diversity Plus: 3C Assay for Urokinase-type plasminogen activator receptor (uPAR) Biomarker Activity (AID 2282998); settings: BioMAP 3C HUVEC, uPAR biomarker ELISA; actives raise or lower the signal
The source made the active and inactive calls. Rule for the calls: active = hit-call score of the fitted dose curve at least 0.9, where 1 is the maximum; inactive = score below 0.9.
Outcomes: active, inactive

{"columns": ["COMPOUND STRING", "LABEL"],
 "data": [
  ["CCCCc1oc2ccccc2c1C(=O)c1cc(I)c(OCCN(CC)CC)c(I)c1", "active"],
  ["CCCCCCCCCCCCOS(=O)(=O)O", "inactive"],
  ["OCC(CO)(CBr)CBr", "inactive"]
]}

----------
test: ATG_Oct_MLP_CIS: Attagene CIS-FACTORIAL HepG2 Assay for human Octamer-Binding Transcription Factor (Oct) (AID 2282993); settings: HepG2 Attagene cis-factorial Oct reporter, mRNA; actives raise or lower the signal
Calls of active or inactive are those of the source. Rule for the calls: active = hit-call score of the fitted dose curve at least 0.9, where 1 is the maximum; inactive = score below 0.9.
Outcome codes: YES = active, NO = inactive

{"columns": ["COMPOUND STRING", "LABEL"],
 "data": [
  ["CCCCCCCCCCCC[N+](C)(C)CCCCCCCCCCCC", "YES"],
  ["Cc1ccc(C)c(S(=O)(=O)O)c1", "NO"],
  ["Brc1ccc(Oc2ccc(Br)cc2Br)cc1", "NO"],
  ["c1cc[nH]c1", "NO"]
]}

----------
target: Transcription factor E2F1 (Homo sapiens); experiment: ATG_E2F_CIS: Attagene CIS-FACTORIAL HepG2 Assay for human E2F Transcription Factor 1 (AID 2282935); settings: HepG2 Attagene cis-reporter, E2F reporter RNA transcripts; actives raise or lower the signal
Calls of active or inactive are those of the source. How the source made its calls: active means hit-call score of the fitted dose curve at least 0.9, where 1 is the maximum; inactive means score below 0.9.
Outcomes: t for active, f for inactive

{"columns": ["MOLECULE", "LABEL"],
 "data": [
  ["CCCCCCOC(=O)c1ccc(O)cc1", "f"],
  ["CCCCCCCCCCCC[N+](C)(C)CCCCCCCCCCCC", "f"],
  ["C[N+](C)(CCCNS(=O)(=O)CCC(F)(F)C(F)(F)C(F)(F)C(F)(F)C(F)(F)C(F)(F)F)CC(=O)[O-]", "f"],
  ["CCC(=O)O", "f"],
  ["CCCCc1oc2ccccc2c1C(=O)c1cc(I)c(OCCN(CC)CC)c(I)c1", "f"],
  ["CCCCCCCCC(C)=O", "f"],
  ["CC1CCC(C(=O)O)CC1 (stereo not drawn)", "f"],
  ["CN(CCO)S(=O)(=O)C(F)(F)C(F)(F)C(F)(F)C(F)(F)C(F)(F)C(F)(F)C(F)(F)C(F)(F)F", "f"],
  ["Cc1cc(=O)oc2cc(O)ccc12", "f"],
  ["COc1cc(OC)nc(NC(=O)NS(=O)(=O)Nc2ccccc2C(=O)N(C)C)n1", "f"],
  ["FC(F)=C(F)C(F)(F)C(F)(F)C(F)(F)C(F)F", "f"],
  ["Cn1sccc1=O", "f"],
  ["Oc1cccc2c(O)cccc12", "f"],
  ["COC(=O)C(F)(F)C(F)(F)C(F)(F)F", "f"],
  ["FC(F)(F)C(F)(F)C(F)(F)Br", "f"],
  ["NNC(=O)CCCCC(=O)NN", "f"],
  ["O=c1cc(-c2ccccc2)oc2ccc3ccccc3c12", "f"],
  ["C=CC(=O)OCCC(F)(F)C(F)(F)C(F)(F)C(F)(F)C(F)(F)C(F)(F)F", "f"],
  ["FC(F)(F)C(F)(F)C(F)(F)C(F)(F)I", "f"],
  ["C=CC(=O)OCCC(F)(F)C(F)(F)C(F)(F)C(F)(F)C(F)(F)C(F)(F)C(F)(F)C(F)(F)F", "f"],
  ["Cc1cncc(C)c1", "f"],
  ["NCc1cccc(CN)c1", "f"],
  ["O=C(OC(=O)C(F)(F)C(F)(F)F)C(F)(F)C(F)(F)F", "f"],
  ["O=P(O)(O)CCC(F)(F)C(F)(F)C(F)(F)C(F)(F)C(F)(F)C(F)(F)C(F)(F)C(F)(F)F", "f"],
  ["CNNCc1ccc(C(=O)NC(C)C)cc1", "f"],
  ["O=C1OC(=O)C(F)(F)C1(F)F", "f"],
  ["CCCCCCCCCCCC(=O)NCCCN(C)C", "f"],
  ["O=S(=O)(O)C(F)(F)C(F)(F)C(F)(F)C(F)(F)C(F)(F)C(F)(F)C(F)(F)C(F)(F)C(F)(F)C(F)(F)F", "f"],
  ["O=S(=O)(O)c1ccc2cc(O)ccc2c1", "f"],
  ["CCCCc1ccc2ccccc2c1S(=O)(=O)O", "f"],
  ["Nc1ccn([C@@H]2O[C@H](CO)[C@@H](O)C2O)c(=O)n1 (stereo partly drawn)", "f"],
  ["NS(=O)(=O)O", "f"],
  ["CCc1cccc(CC)c1NC(=O)C(=O)O", "f"],
  ["CCOCCOCC", "f"],
  ["O=S(=O)(O)c1ccccc1", "f"],
  ["O=C(F)C(F)(F)C(F)(F)C(F)(F)C(=O)F", "f"],
  ["O=C(Nc1ccc(Cl)c(Cl)c1)c1cc(Cl)cc(Cl)c1O", "f"],
  ["CCO[Si](C)(C)OCC", "f"],
  ["Cc1ccccc1C(OCCN(C)C)c1ccccc1 (stereo not drawn)", "f"],
  ["O=C(c1ccccc1)c1ccccc1", "f"],
  ["CCCCC=O", "f"],
  ["Cc1ccc(C)c(S(=O)(=O)O)c1", "f"],
  ["COc1cccc(O)c1", "f"],
  ["Cc1cc(Cc2cc(C)cc(C(C)(C)C)c2O)c(O)c(C(C)(C)C)c1", "t"],
  ["CCOC(OCC)C(=O)c1ccccc1", "f"],
  ["CCc1ccccc1O", "f"],
  ["CCCCC(CC)C(=O)O (stereo not drawn)", "f"],
  ["CCCCC(CC)C(=O)OCCOCCOCCOCCOC(=O)C(CC)CCCC (stereo not drawn)", "f"]
]}
